B1: EHBP1 CH (calponin homology) domain [human] / EHBP1 bMERB domain (bMERB_(1060-1212), full-length bMERB domain) [human] (parent complex)
chain 1: GRKPNASQSLLVWCKEVTKNYRGVKITNFTTSWRNGLSFCAILHHFRPDLIDYKSLNPQDIKENNKKAYDGFASIGISRLLEPSDMVLLAIPDKLTVMTYLYQIRAHFSGQ
chain 2: not shown

variants of: B1; assay: ITC
PROPERTY_MEASURED: pKd
Lab note — pKd values are minus log10 of concentrations in M.

Problem: Request the reported pKd associated with chain 1 D93A
Solution: 4.36

Sourced from paper PMC7442826
